# SYSTEM UNDER TEST: autotaxin (ATX) (Homo sapiens, UniProt Q13822)
# Construct: conditioned medium from the human melanoma cell line, MDA-MB-4355, which endogenously expresses autotaxin; serum-free conditioned medium, concentrated 20-fold
# ASSAY INFO: Native Autotaxin Choline Release Assay
# CONDITION SUMMARY: autotaxin in conditioned medium from human melanoma cell line; choline released from LPC; read-out: MDA-MB-435S Assay IC50
pIC50: −log10 of the molar value.
Exercise: for every item that follows, state its recorded pIC50.

INPUT: Report pIC50, nothing else, for this compound: O=C(O)c1cccc(Sc2c(C(F)(F)F)n(Cc3ccccc3)c3cc(Cl)ccc23)c1
OUTPUT: < 6.00

INPUT: Report pIC50, nothing else, for this compound: COc1c(Sc2c(C)n(-c3cnn(C)c3)c3cc(Cl)ccc23)cccc1C(=O)O
OUTPUT: > 6.52

INPUT: Report pIC50, nothing else, for this compound: COC(=O)c1cccc(Oc2c(C)n(Cc3ccccc3)c3cc(Cl)ccc23)c1
OUTPUT: < 6.00

INPUT: Report pIC50, nothing else, for this compound: CCn1cc(-n2c(C)c(Sc3cccc(CC(=O)O)c3F)c3ccc(Cl)c(F)c32)cn1
OUTPUT: > 6.52

INPUT: Report pIC50, nothing else, for this compound: Cc1[nH]c2cc(Cl)ccc2c1Sc1ccccc1CC(=O)O
OUTPUT: < 6.00

INPUT: Report pIC50, nothing else, for this compound: Cc1c(Sc2c(C)n(-c3cnn(C)c3)c3cc(Cl)ccc23)cccc1C(=O)O
OUTPUT: > 6.52

INPUT: Report pIC50, nothing else, for this compound: CCn1cc(-n2c(C)c(Sc3cccc(C(=O)O)c3)c3cc(F)c(Cl)cc32)cn1
OUTPUT: > 6.52

INPUT: Report pIC50, nothing else, for this compound: CCn1cc(-n2c(C)c(Sc3cccc(C(=O)NS(=O)(=O)C4CC4)c3)c3ccc(Cl)c(F)c32)cn1
OUTPUT: > 6.52

INPUT: Report pIC50, nothing else, for this compound: Cc1c(Sc2cccc(C(=O)O)c2)c2ccc(Cl)cc2n1-c1cnn(-c2ccc(F)cc2)c1
OUTPUT: > 6.52

INPUT: Report pIC50, nothing else, for this compound: Cc1c(Sc2cccc(C(=O)O)c2)c2ccc(Cl)cc2n1Cc1ccccc1
OUTPUT: 6.00 to 6.52

INPUT: Report pIC50, nothing else, for this compound: Cc1c(Sc2cccc(CC(=O)O)c2)c2ccc(Cl)cc2n1Cc1ccccc1
OUTPUT: < 6.00

INPUT: Report pIC50, nothing else, for this compound: Cc1c(Oc2cccc(CO)c2)c2ccc(Cl)cc2n1Cc1ccccc1
OUTPUT: < 6.00

INPUT: Report pIC50, nothing else, for this compound: CCn1cc(-n2c(C)c(Sc3cccc(CC(=O)O)c3)c3ccc(Cl)c(F)c32)cn1
OUTPUT: > 6.52

INPUT: Report pIC50, nothing else, for this compound: COc1ccc(Cn2cc(-n3c(C)c(Sc4cccc(C(=O)O)c4)c4ccc(Cl)c(F)c43)cn2)cc1
OUTPUT: > 6.52
